Data credit: paper PMC2010749

- System: HEp-2 human epithelial-like line
- CONDITION_CONTEXT: 2 h exposure to medium preincubated 2 days with 0.5 mg/ml in presence of BHK cells
ASSAY_METRIC: Mitotic inhibition, early (% reduction of normal prophases at the end of treatment)

Record [Cl][Cr]([Cl])[Cl] [Chromium chloride] . Reported Mitotic inhibition, early (% reduction of normal prophases at the end of treatment): ++ (+ + (30-70%))

Record [O]=[Cr](=[O])([O-])[O-].[O]=[Pb].[Pb+2] [Chromium orange, Basic lead chromate] , field Mitotic inhibition, early (% reduction of normal prophases at the end of treatment): ++ (+ + (30-70%))

---

Please go through the items and note down their RNA synthesis, preinc. in MEM.
- System: BHK 21 Syrian hamster fibroblast line
- METHOD_NOTES: DNA, RNA and protein syntheses in BHK monolayers exposed to filtered medium preincubated with Cr compounds
- Format: cell-based
- CONDITION_CONTEXT: preincubated 48 h with 0.5 mg/ml; cells exposed 24 h

Query [Cl][Cr]([Cl])[Cl] [Chromium chloride] on BHK 21 Syrian hamster fibroblast line; RNA synthesis, preinc. in MEM returned: 100 % of controls

RNA synthesis, preinc. in MEM on BHK 21 Syrian hamster fibroblast line for [O]=[Cr](=[O])([O-])[O-].[O]=[Pb].[Pb+2] [Chromium orange, Basic lead chromate] is 93 % of controls

Given the compound O=S(=O)([O-])[O-].O=S(=O)([O-])[O-].O=S(=O)([O-])[O-].[Cr+3].[Cr+3] [Chromium sulphate] and test system BHK 21 Syrian hamster fibroblast line, the measured RNA synthesis, preinc. in MEM is 87 % of controls

Lab entry: BHK 21 Syrian hamster fibroblast line assay, compound [K+].[K+].[O]=[Cr](=[O])([O-])[O][Cr](=[O])(=[O])[O-] [Potassium dichromate] , RNA synthesis, preinc. in MEM = 39 % of controls

---

- Test system: BHK 21 Syrian hamster fibroblast line
- METHOD_NOTES: DNA, RNA and protein syntheses in BHK monolayers exposed to filtered medium preincubated with Cr compounds
- Type: cell-based
- CONDITION_CONTEXT: preincubated 48 h with 0.5 mg/ml; cells exposed 24 h
ASSAY_METRIC: Protein synthesis, preinc. in MEM

Short answer on BHK 21 Syrian hamster fibroblast line for [K+].[K+].[O]=[Cr](=[O])([O-])[O][Cr](=[O])(=[O])[O-] [Potassium dichromate] , Protein synthesis, preinc. in MEM: 52 % of controls

Form field Protein synthesis, preinc. in MEM for item [O]=[Cr](=[O])([O-])[O-].[O]=[Pb].[Pb+2] [Chromium orange, Basic lead chromate] on BHK 21 Syrian hamster fibroblast line: 100 % of controls

Record [Cl][Cr]([Cl])[Cl] [Chromium chloride] ; system BHK 21 Syrian hamster fibroblast line; Protein synthesis, preinc. in MEM = 100 % of controls

Assay BHK 21 Syrian hamster fibroblast line, sample O=S(=O)([O-])[O-].O=S(=O)([O-])[O-].O=S(=O)([O-])[O-].[Cr+3].[Cr+3] [Chromium sulphate] , Protein synthesis, preinc. in MEM read: 100 % of controls

---

- System: BHK 21 Syrian hamster fibroblast line
- METHOD_NOTES: DNA, RNA and protein syntheses in BHK monolayers exposed to filtered medium preincubated with Cr compounds;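 also: DNA, RNA and protein synthesis in BHK cultures assessed by incorporation of labelled precursors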
- Assay type: cell-based
- CONDITION_CONTEXT: preincubated 48 h with 0.5 mg/ml; cells exposed 24 h
Field: Protein synthesis, preinc. in MEM+BHK. Provide a value for each of the molecules that follow.

According to the records, this molecule [O]=[Cr](=[O])([O-])[O-].[O]=[Pb].[Pb+2] [Chromium orange, Basic lead chromate] displays Protein synthesis, preinc. in MEM+BHK of 100 % of controls

Entry [Cl][Cr]([Cl])[Cl] [Chromium chloride] ; Protein synthesis, preinc. in MEM+BHK = 100 % of controls

Lookup result for O=S(=O)([O-])[O-].O=S(=O)([O-])[O-].O=S(=O)([O-])[O-].[Cr+3].[Cr+3] [Chromium sulphate] ; measured Protein synthesis, preinc. in MEM+BHK: 100 % of controls

Noted for [K+].[K+].[O]=[Cr](=[O])([O-])[O][Cr](=[O])(=[O])[O-] [Potassium dichromate] : its Protein synthesis, preinc. in MEM+BHK reads 69 % of controls
